# Lookup of reported pIC50 keyed by entry
# Measured Target: CDK2/cyclin E (Homo sapiens, UniProt P24941)
# Construct: His6 (N)
# Protocol Details: CDK/cyclin kinase assay, CDK2/cyclin E
# Condition Description: read-out: Kinase inhibition IC50 CDK2/E
pIC50: −log10 of the molar value.

# Molecule, Measured Target, pIC50
data = [
    ("COc1ccc(Nc2nccc(-c3nc(C)c(C)s3)n2)cn1 [XVI]", "CDK2/cyclin E (Homo sapiens, UniProt P24941)", "< 6.00"),
    ("Clc1ccc(Nc2nccc(-c3nccs3)n2)cn1 [Compound XIV]", "CDK2/cyclin E (Homo sapiens, UniProt P24941)", 4.96),
    ("Cc1nc(-c2ccnc(Nc3ccc(Cl)nc3)n2)sc1C [XVII]", "CDK2/cyclin E (Homo sapiens, UniProt P24941)", "< 5.00"),
    ("COc1ccc(Nc2nccc(-c3nccs3)n2)cn1 [XIII]", "CDK2/cyclin E (Homo sapiens, UniProt P24941)", "< 4.30"),
    ("CCOC(=O)c1sc(-c2ccnc(Nc3ccc(Cl)cc3)n2)nc1O [VII]", "CDK2/cyclin E (Homo sapiens, UniProt P24941)", "< 6.00"),
]
